- test.details: Plasma concentration-time profile (AUC) after oral dosing to dogs
- Format: in vivo, beagle dogs
- run.conditions: beagle, dog, plasma, 5 mg/kg po, gelcaps
measure.name: AUC (ng·h/mL)
Field format: number, assumed ng·h/mL, no unit text.

INPUT: I'd like to know its AUC. The compound in question is C[C@H](c1cc2ccccc2s1)N(O)C(N)=O [(R)-zileuton]
OUTPUT: 52000
